Values were extracted from patent US7875745B2.

biological target: human EDG-2 (Homo sapiens, UniProt Q92633); experiment: Evaluation of EDG-2 antagonistic activity by monitoring the change of intracellular calcium ion concentration; settings: CHO cells overexpressing human EDG-2 gene; LPA 100 nM; intracellular calcium (Fura2-AM)
Sequence (Q92633 whole entry): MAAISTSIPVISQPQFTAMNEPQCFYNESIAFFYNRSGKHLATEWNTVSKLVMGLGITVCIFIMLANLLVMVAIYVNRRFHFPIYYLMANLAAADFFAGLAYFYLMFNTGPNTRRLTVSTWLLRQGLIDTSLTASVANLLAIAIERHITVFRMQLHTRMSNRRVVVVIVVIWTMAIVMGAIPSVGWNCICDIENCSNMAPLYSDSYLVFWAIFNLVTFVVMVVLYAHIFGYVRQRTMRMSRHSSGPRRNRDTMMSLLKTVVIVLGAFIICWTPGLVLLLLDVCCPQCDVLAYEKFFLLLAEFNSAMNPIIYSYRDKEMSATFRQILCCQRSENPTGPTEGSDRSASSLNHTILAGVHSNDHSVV
READOUT TYPE: IC50 (nM)
Enter your answer as a number in nM; do not include the unit.

Inquiry: Field request: IC50 | item: COc1cc([C@@H](O)[C@@H](CCCc2ccccc2)Cc2ccc(CC(=O)O)cc2)cc(OC)c1OC
Reply text: 40
